Reported pIC50 values are given for each entry in this list.
Tested on: SF-539
assay comment: In vitro anti-proliferation assay (ATPlite), SF-539
Type: cell-based
assay setup: Homo sapiens; CNS Cancer, SF-539, 72 hours
Reminder that pIC50 means the negative base-10 logarithm of the concentration expressed in mol/L.

>>> experimental_result("CCc1c2c(nc3ccc(OC(=O)N4CCC(N5CCCCC5)CC4)cc13)-c1cc3c(c(=O)n1C2)COC(=O)[C@]3(O)CC [Irinotecan, reference compound]")
5.30

Lab note: next compound to report on.
IN: Query (compound): CCc1c2c(nc3ccc(OCCCCCCC(=O)NO)cc13)-c1cc3c(c(=O)n1C2)COC(=O)[C@]3(O)CC ; field requested: pIC50
OUT: 6.22

The measured values listed here are drawn from patent US8980909B2.
